Reported apparent KD of K4 kissing-loop reporter by item:
Tested on: K4 kissing-loop RNA reporter;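 also: bound reporter read as fluorescence of individual clusters on recovered sequencing chips by microscopy, with normalized cluster intensities fitted with a binding model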
Assay: apparent KD of K4 kissing-loop reporter; higher = weaker reporter binding
Conditions: Eterna round: R107; input ligand: FMN 200 uM

{"columns": ["SEQ_STRING", "apparent KD of K4 kissing-loop reporter [µM]"],
 "data": [
  ["UAGAGCAUCGCAGGAUAUCCUGCUUAACGUUGGAUUCCAGUGAUGUUGGAAAGCCGGCCUAGGGUAGGAGAAGGGCGGAUUUGAA [Edvean]", 0.171],
  ["UAAGAGGACCACUGCAAGAGUCCUCGAAUACGAGGACCGGUACGGCCGCCACUCGAUAACUUGCAGUGAUGUUGCAAGUAAGAAU [(T)''-(K)'-(T)'-(T1)-(T2)-(K1)-(K2)_Design1]", 0.124],
  ["AUUAUAAAGUCGGCCGCCACUGAGAGUAGUGAUGUUACUCUUUUCCUUUAGAUAUUAUAUUUUAUCAGGACCGGGACAUCUGAUU [JR_Nu_ExcTryptoB_Sub024]", 0.147],
  ["GUACGCUUCCGAGUGAUGUUCGGUAAUAGUUAGGAUAUCGUUUUUUCGAGAAGGAACUGAAUGAGGAAACUCGUUCGAAGUGUAC [FMN A 16]", 0.395],
  ["AGGUUUUACGGAGGAUAUGCACUGAGGAGGAGAAUAUAGUGAUGUUAUAUAAGAGGAAGGAGAAGAGUAGAAGGCCGUGAGGUUU [SSFMNB.M]", 0.136],
  ["CGUUUAUAGCAGGAUACCAGUACCCAUAAAGUACGUUAAUAGUAGAGUGAUGUUCUAAAGUACCCUUGGCAGCUUCCAGUGAGUG [ExTheophylB.S]", 0.102]
]}
